Exercise: for every item that follows, state its recorded kon.
- TARGET ENTITY: Human BCMA (human) (UniProt Q02223)
- ASSAY PROCEDURE: SPR, IgG on chip, huBCMA analyte
A number alone suffices; assume M⁻¹ s⁻¹.

For the binder A02_Rd4_6nM_C26 (antibody, V domains shown, IgG) VH: EVQLLESGGGLVQPGGSLRLSCAASGFTFSSYAMNWVRQAPGKGLEWVSAISDSGGSTYYADSVKGRFTISRDNSKNTLYLQMNSLRAEDTAVYYCARYWPMSLWGQGTLVTVSS VL: EIVLTQSPGTLSLSPGERATLSCRASQSVSSLYLAWYQQKPGQAPRLLMYDASIRATGIPDRFSGSGSGTDFTLTISRLEPEDFAVYYCQQYQVWPLTFGQGTKVEIK , report kon.
4.26e+06

Name the recorded kon of the binder listed here: COMBO_Rd4_0.6nM_C04 (antibody, V domains shown, IgG) VH: EVQLLESGGGLVQPGGSLRLSCAASGFTFSSYPMSWVRQAPGKGLEWVSAHIGSGGSTYYADSVKGRFTISRDNSKNTLYLQMNSLRAEDTAVYYCARYWPMDSWGQGTLVTVSS VL: EIVLTQSPGTLSLSPGERATLSCRASQSVSSTYLAWYQQKPGQAPRLLMYDASIRATGIPDRFSGSGSGTDFTLTISRLEPEDFAVYYCQQYQSWPLTFGQGTKVEIK
1.07e+07

Please list kon recorded for the binder A02_Rd4_6nM_C25 (antibody, V domains shown, IgG) VH: EVQLLESGGGLVQPGGSLRLSCAASGFTFSSYAMNWVRQAPGKGLEWVSAISDSGGSRWYADSVKGRFTISRDNSKNTLYLQMNSLRAEDTAVYYCARYWPMTPWGQGTLVTVSS VL: EIVLTQSPGTLSLSPGERATLSCRASQSVSSSYLAWYQQKPGQAPRLLMYDASIRATGIPDRFSGSGSGTDFTLTISRLEPEDFAVYYCQQYLDWPLTFGQGTKVEIK
2.75e+06

// Input: A02_Rd4_0.6nM_C10 (antibody, V domains shown, IgG) VH: EVQLLESGGGLVQPGGSLRLSCAASGFTFSSYAMNWVRQAPGKGLEWVSAISGWGGSLPYADSVKGRFTISRDNSKNTLYLQMNSLRAEDTAVYYCARYWPMDSWGQGTLVTVSS VL: EIVLTQSPGTLSLSPGERATLSCRASQSVSAQYLAWYQQKPGQAPRLLMYDASIRATGIPDRFSGSGSGTDFTLTISRLEPEDFAVYYCQQYQRWPLTFGQGTKVEIK . Output its kon only.
2.3e+06

Specify kon for COMBO_Rd4_0.6nM_C09 (antibody, V domains shown, IgG) VH: EVQLLESGGGLVQPGGSLRLSCAASGFTFSSYPMSWVRQAPGKGLEWVSAIGGSGGSLPYADSVKGRFTISRDNSKNTLYLQMNSLRAEDTAVYYCARYWPMDIWGQGTLVTVSS VL: EIVLTQSPGTLSLSPGERATLSCRASQSVSSTYLAWYQQKPGQAPRLLMYDASIRATGIPDRFSGSGSGTDFTLTISRLEPEDFAVYYCQQYQEWPLTFGQGTKVEIK and stop.
1.04e+07
